Value source: ChEMBL document CHEMBL5291721

Cannabinoid receptor 1 (Homo sapiens) AC50 data; further: assay procedure not described here
Sequence (P21554 whole entry): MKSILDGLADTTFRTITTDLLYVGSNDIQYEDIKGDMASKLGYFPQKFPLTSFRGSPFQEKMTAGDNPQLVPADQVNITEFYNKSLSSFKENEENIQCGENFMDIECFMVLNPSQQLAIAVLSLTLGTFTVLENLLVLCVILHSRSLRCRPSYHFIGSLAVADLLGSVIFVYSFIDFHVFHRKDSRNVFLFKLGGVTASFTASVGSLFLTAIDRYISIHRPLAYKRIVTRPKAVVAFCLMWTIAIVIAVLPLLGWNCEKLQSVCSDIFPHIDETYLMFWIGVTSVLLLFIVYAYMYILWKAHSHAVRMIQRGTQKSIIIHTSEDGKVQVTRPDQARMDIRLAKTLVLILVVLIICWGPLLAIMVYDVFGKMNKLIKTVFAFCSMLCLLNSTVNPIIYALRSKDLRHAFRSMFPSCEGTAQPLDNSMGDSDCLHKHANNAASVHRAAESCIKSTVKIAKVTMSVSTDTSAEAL
readout: AC50

>>> print(df.to_string())
                                    molecule                          target_system  assay_result
 0  CC(=O)OCC1=C(C(=O)O)N2C(=O)[C@@H](NC(=O)CSc3ccncc3)[C@H]2SC1  Cannabinoid receptor 1 (Homo sapiens)       > 10 µM
 1  O=C(C[S+]([O-])Cc1ccco1)NC/C=C\COc1cc(CN2CCCCC2)ccn1 (stereo unspecified)  Cannabinoid receptor 1 (Homo sapiens)       > 10 µM
 2  O=C(O[C@H]1C[N+]2(CCCOc3ccccc3)CCC1CC2)C(O)(c1cccs1)c1cccs1 [ACLIDINIUM BROMIDE]  Cannabinoid receptor 1 (Homo sapiens)       > 10 µM
 3                         CC(C)(N)Cc1ccccc1  Cannabinoid receptor 1 (Homo sapiens)       > 10 µM
 4                CCC1(c2ccccc2)C(=O)NCNC1=O  Cannabinoid receptor 1 (Homo sapiens)       > 10 µM
 5  CCc1ccc(C(=O)C(C)CN2CCCCC2)cc1 (stereo unspecified)  Cannabinoid receptor 1 (Homo sapiens)       > 30 µM
 6  N=C(N)NC(=O)c1nc(Cl)c(N)nc1N [AMILORIDE]  Cannabinoid receptor 1 (Homo sapiens)       > 30 µM
 7  Cc1ccc(-c2ncc(Cl)cc2-c2ccc(S(C)(=O)=O)cc2)cn1  Cannabinoid receptor 1 (Homo sapiens)       > 10 µM
 8  Cc1cccc(Nc2ccncc2S(=O)(=O)NC(=O)NC(C)C)c1 [TORSEMIDE]  Cannabinoid receptor 1 (Homo sapiens)       > 10 µM
 9  COc1ccc(C(Cl)=C(c2ccc(OC)cc2)c2ccc(OC)cc2)cc1  Cannabinoid receptor 1 (Homo sapiens)       > 10 µM
10  CN(C)CCCC1(c2ccc(F)cc2)OCc2cc(C#N)ccc21 (stereo unspecified)  Cannabinoid receptor 1 (Homo sapiens)       > 10 µM
11  CC(C)NCC(O)COc1ccc(CC(N)=O)cc1 (stereo unspecified)  Cannabinoid receptor 1 (Homo sapiens)         26 µM
12  CC1CC(OC(=O)C(O)c2ccccc2)CC(C)(C)C1 (stereo unspecified) [CYCLANDELATE]  Cannabinoid receptor 1 (Homo sapiens)       > 10 µM
13  CCC1(C)CC(=O)NC1=O (stereo unspecified) [ETHOSUXIMIDE]  Cannabinoid receptor 1 (Homo sapiens)       > 10 µM
14  C[C@]12CCC(=O)C=C1CC[C@H]1[C@@H]3CC[C@](O)(C(=O)CO)[C@@]3(C)C[C@H](O)[C@@]12F  Cannabinoid receptor 1 (Homo sapiens)       > 10 µM
15  CCOC(=O)O[C@]1(C(=O)COC(=O)CC)CC[C@H]2[C@@H]3CCC4=CC(=O)C=C[C@]4(C)[C@H]3[C@@H](O)C[C@@]21C [PREDNICARBATE]  Cannabinoid receptor 1 (Homo sapiens)       > 10 µM
16  COC(=O)[C@H]1[C@H]2C[C@@H]3c4[nH]c5ccccc5c4CCN3C[C@H]2C[C@@H](OC(=O)c2cc(OC)c(OC)c(OC)c2)[C@@H]1OC  Cannabinoid receptor 1 (Homo sapiens)       > 10 µM
17          C[C@H](CS)C(=O)N1CCC[C@H]1C(=O)O  Cannabinoid receptor 1 (Homo sapiens)       > 10 µM
18  O=C1CC2(CCCC2)CC(=O)N1CCCCN1CCN(c2ncccn2)CC1  Cannabinoid receptor 1 (Homo sapiens)       17.5 µM
19  C[C@]12C=CC(=O)C=C1CC[C@@H]1[C@@H]2[C@@H](O)C[C@@]2(C)[C@H]1CC[C@]2(O)C(=O)CO  Cannabinoid receptor 1 (Homo sapiens)       > 10 µM
20  CC(=O)SCC(Cc1ccccc1)C(=O)NCC(=O)OCc1ccccc1 (stereo unspecified)  Cannabinoid receptor 1 (Homo sapiens)       > 10 µM
